Assay: Lipophilicity, log P of the compound
Format: physicochemical
Conditions: octanol/water; read-out: logP
assay_endpoint: logP

1. CC[C@@H]1C(=O)N(C)c2cnc(-n3ccnc3-c3ccccc3)nc2N1CCC(F)(F)F
2. CC[C@@H]1C(=O)N(C)c2cnc(-n3ccnc3-c3ccc(F)cc3)nc2N1c1cnn(C)c1
Could you point out whether the larger logP belongs to 1 or to 2 ? Refer to your chosen entry by its label in the reply.
1

----------
Assay: Lipophilicity, log P of the compound
Assay type: physicochemical
Conditions: octanol/water; read-out: logP
assay_endpoint: logP

Record excerpt, results attached:
Specify reported logP for the molecule shown: CC[C@@H]1C(=O)N(C)c2cnc(-n3ccnc3-c3ccc(F)cc3)nc2N1[C@H]1CCOC1
2

Specify reported logP for the molecule shown: CC[C@@H]1C(=O)N(C)c2cnc(-n3ccnc3-c3ccccc3)nc2N1c1cncnc1
1.3

Specify reported logP for the molecule shown: CC[C@@H]1C(=O)N(C)c2cnc(-n3ccnc3-c3ccc(F)cc3)nc2N1c1cn[nH]c1
1.8

a. CC[C@@H]1C(=O)N(C)c2cnc(-n3ccnc3-c3ccc(F)cc3)nc2N1c1ccnn1C
b. CCC1C(=O)N(C)c2cnc(-n3ccnc3-c3ccc(F)cc3)nc2N1C1CCC(F)(F)C1 (racemic)
Lower logP: a or b ? Refer to your chosen entry by its label in the reply.
a
(a: 1.9, b: 3.1)

----------
Experiment: Ratio of drug level from brain to plasma in Sprague-Dawley rat at 200 mg/kg, po measured at 6 hrs
Assay type: ADME, organism-based
Set-up: dose 200 mg/kg, route oral
Details: brain and plasma, read-out: BPR
assay_endpoint: Kp at 6 h
Form field (numeric): enter value without unit.

Specify reported Kp at 6 h for the molecule shown: CC[C@@H]1C(=O)N(C)c2cnc(-n3ccnc3-c3ccc(F)cc3)nc2N1c1ccn(C)n1
0.28

----------
pIC50: −log10 of the molar value.
These molecules were tested on Serine/threonine-protein kinase PLK2 (Homo sapiens, UniProt Q9NYY3); pIC50 is the recorded read-out.
Sequence (Q9NYY3 whole entry): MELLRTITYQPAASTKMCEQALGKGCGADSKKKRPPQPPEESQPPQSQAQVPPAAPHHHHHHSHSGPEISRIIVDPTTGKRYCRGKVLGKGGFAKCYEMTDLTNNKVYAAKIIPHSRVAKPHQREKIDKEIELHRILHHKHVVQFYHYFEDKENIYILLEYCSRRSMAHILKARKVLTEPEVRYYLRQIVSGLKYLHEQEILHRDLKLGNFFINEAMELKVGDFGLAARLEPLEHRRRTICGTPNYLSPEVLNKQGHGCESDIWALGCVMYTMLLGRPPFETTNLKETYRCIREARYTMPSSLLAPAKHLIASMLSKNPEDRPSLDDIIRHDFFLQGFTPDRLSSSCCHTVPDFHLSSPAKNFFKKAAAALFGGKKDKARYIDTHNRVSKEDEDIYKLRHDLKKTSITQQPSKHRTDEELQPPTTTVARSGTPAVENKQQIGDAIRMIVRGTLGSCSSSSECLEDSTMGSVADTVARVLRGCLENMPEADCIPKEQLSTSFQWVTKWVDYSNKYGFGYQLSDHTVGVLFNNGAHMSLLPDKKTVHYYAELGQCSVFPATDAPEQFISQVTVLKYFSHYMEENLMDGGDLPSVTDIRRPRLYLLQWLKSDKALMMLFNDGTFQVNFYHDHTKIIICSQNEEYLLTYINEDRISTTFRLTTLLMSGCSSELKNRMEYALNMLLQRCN
assay_endpoint: pIC50

Record excerpt, results attached:
Specify reported pIC50 for the molecule shown: CC[C@@H]1C(=O)N(C)c2cnc(-c3c[nH]nc3-c3nccs3)nc2N1[C@H]1CCOC1
5.50

Specify reported pIC50 for the molecule shown: CCC1C(=O)N(C)c2cnc(-n3ccnc3-c3ccc(F)cc3)nc2N1c1cc[nH]n1 (racemic)
6.13

Specify reported pIC50 for the molecule shown: CCC1C(=O)N(C)c2cnc(-n3ccnc3-c3ccccc3)nc2N1c1cncnc1 (racemic)
5.41

A. CC[C@@H]1C(=O)N(C)c2cnc(-n3ccnc3-c3ccc(F)cc3)nc2N1c1ccn(C)n1
B. CC[C@@H]1C(=O)N(C)c2cnc(-n3ccnc3-c3ccc(F)cc3)nc2N1[C@H]1CCOC1
Could you point out whether the larger pIC50 belongs to A or to B ? Refer to your chosen entry by its label in the reply.
A

----------
Tested on: MDR1
Test: Efflux ratio of permeability across apical to basolateral side in […] MDCK cells expressing MDR1 at 5 uM after 120 mins by LC/MS/MS analysis
Assay type: ADME, cell-based
assay_endpoint: efflux ratio at 2 h, 5 µM
Form field (numeric): enter value without unit.

Report value only: efflux ratio at 2 h, 5 µM, MDR1, CC[C@@H]1C(=O)N(C)c2cnc(-n3ccnc3-c3ccc(F)cc3)nc2N1c1ccn(C)n1
1.1

----------
Assay: Metabolic stability in human liver microsomes assessed as compound remaining at 1 uM after 30 mins
Format: ADME, Microsome
Conditions: read-out: Stability
assay_endpoint: remaining at 0.5 h, 1 µM (%)

Specify reported remaining at 0.5 h, 1 µM for the compound shown: CC[C@@H]1C(=O)N(C)c2cnc(-c3c[nH]nc3-c3ccc(F)cc3F)nc2N1c1cnn(C)c1
48

Specify reported remaining at 0.5 h, 1 µM for the compound shown: CCC1C(=O)N(C)c2cnc(-n3ccnc3-c3ccccc3)nc2N1c1ccccc1 (racemic)
21

Specify reported remaining at 0.5 h, 1 µM for the compound shown: CC[C@@H]1C(=O)N(C)c2cnc(-c3cn[nH]c3-c3nccs3)nc2N1C1CCOCC1
47

I. CC(C)N1c2nc(-n3ccnc3-c3ccc(F)cc3)ncc2N(C)C(=O)C1(C)C
II. CCC1(C)C(=O)N(C)c2cnc(-n3ccnc3-c3ccc(F)cc3)nc2N1CCC(F)(F)F (racemic)
III. CCC1C(=O)N(C)c2cnc(-n3ccnc3-c3ccc(F)cc3)nc2N1C1CCC(F)(F)C1 (racemic)
IV. CCC1C(=O)N(C)c2cnc(-c3cn[nH]c3-c3ccccn3)nc2N1c1cnn(C)c1 (racemic)
I would appreciate it if you could sort these 4 compounds by remaining at 0.5 h, 1 µM, starting from the smallest number. Put the labels in the requested order and list them out.
III, II, I, IV

P. CC[C@@H]1C(=O)N(C)c2cnc(-n3ccnc3-c3ccc(F)cc3)nc2N1c1ccn(C)n1
Q. CC[C@@H]1C(=O)N(C)c2cnc(-n3ccnc3-c3ccc(F)cc3)nc2N1C1CC(F)(F)C1
R. CC[C@@H]1C(=O)N(C)c2cnc(-n3ccnc3-c3ccccc3)nc2N1CCC(F)(F)F
I would appreciate it if you could sort these 3 compounds by remaining at 0.5 h, 1 µM, starting from the smallest number. Put the labels in the requested order and list them out.
R, Q, P

a. CC[C@@H]1C(=O)N(C)c2cnc(-n3ccnc3-c3ccc(F)cc3)nc2N1c1cn[nH]c1
b. CCC1C(=O)N(C)c2cnc(-n3ccnc3-c3ccc(F)cc3)nc2N1c1ccc(F)cc1 (racemic)
Lower remaining at 0.5 h, 1 µM: a or b ? Refer to your chosen entry by its label in the reply.
b

P. CCC1C(=O)N(C)c2cnc(-n3ccnc3-c3ccc(F)cc3)nc2N1c1cc[nH]n1 (racemic)
Q. CC[C@@H]1C(=O)N(C)c2cnc(-n3ccnc3-c3ccc(F)cc3)nc2N1CCC(F)(F)F
Lower remaining at 0.5 h, 1 µM: P or Q ? Refer to your chosen entry by its label in the reply.
Q
